- Test system: IL-23 induced STAT3 in HEK-Blue™ IL-23 cells
- test: IL-23 induced STAT3 QUANTI-Blue reporter assay in HEK-Blue IL-23 cells
- Type: cell-based
- study-conditions: HEK-Blue IL-23 cells, IL-23 0.1 ng/mL, SEAP levels; numeric value (control); read-out: IL23 reporter assay (IC50 nM)
endpoint: IC50 (nM)
Give a bare numeral; the unit nM is implied.

Entry [2H]C([2H])([2H])NC(=O)c1nnc(NC(=O)C2CC2)cc1Nc1cccc(-c2ncn(C)n2)c1OC [BMS-986165, reference compound] : reported IC50 = ? 5.93

----------
As shown below, each of these molecules has a reported IC50 value.
- tested-system: N-terminal His-tagged TYK2 pseudokinase domain (Homo sapiens)
- Construct: the N-terminal His-tagged TYK2 pseudokinase domain; His (N); purchased Pharmaron
- Sequence (P29597 589-875 limits assumed): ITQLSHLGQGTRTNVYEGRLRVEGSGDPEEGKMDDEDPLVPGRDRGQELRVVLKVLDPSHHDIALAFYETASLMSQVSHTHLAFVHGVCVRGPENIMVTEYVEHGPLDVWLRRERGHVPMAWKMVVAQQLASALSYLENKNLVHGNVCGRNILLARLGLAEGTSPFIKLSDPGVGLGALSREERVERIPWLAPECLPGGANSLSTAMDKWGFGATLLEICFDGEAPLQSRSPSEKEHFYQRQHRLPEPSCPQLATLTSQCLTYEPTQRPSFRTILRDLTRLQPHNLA
- test: TYK2 JH2 domain SPA binding assay
- study-conditions: displacement of H3 probe (20 nM), 30 min room temperature; class symbols

In the examples that follow, each entry is paired with its recorded IC50.
INSERT INTO assay_data (molecule, endpoint, result) VALUES
  ('CNc1cc(Nc2cccn([C@H]3CC[C@@H](OC)CC3)c2=O)nn2c(C(=O)N[C@@H]3C[C@@H]3F)cnc12 [Compound 70]', 'IC50', '10 to 100 nM'),
  ('CNc1cc(Nc2cccn(-c3ccccc3)c2=O)nn2c(C(=O)N[C@@H]3C[C@H]4CCO[C@H]43)cnc12 [Compound 46]', 'IC50', '10 to 100 nM'),
  ('[2H]C([2H])([2H])Nc1cc(Nc2cccc(N3CCCC3=O)n2)nn2c(C(=O)NC3C[C@H]4CCOC34)cnc12 (mixture of isomers) [Compound 31]', 'IC50', '< 10 nM'),
  ('CNc1cc(Nc2cccc(N3CCCC3=O)n2)nn2c(C(=O)NC(C)c3ncco3)cnc12 (racemic) [Compound 28]', 'IC50', '10 to 100 nM'),
  ('CNc1cc(Nc2cccn(-c3ccccn3)c2=O)nc2c(C(=O)NC3CCc4conc43)cnn12 (racemic) [Compound 37]', 'IC50', '10 to 100 nM'),
  ('CNc1cc(Nc2cccn(-c3ccn(C)n3)c2=O)nn2c(C(=O)NC(C)c3ncco3)cnc12 (single isomer, unassigned) [Compound 49b]', 'IC50', '> 1000 nM');

Kindly consider the entry below.
Returns the measured IC50 for the input molecule. Input: CNc1cc(Nc2cccn(C3CC4CCOC43)c2=O)nn2c(C(=O)N[C@@H]3C[C@@H]3F)cnc12 (single isomer, unassigned) [Compound 105d] 10 to 100 nM

----------
Quick reference: IC50 of the listed items.
- tested-system: N-terminal His-tagged TYK2 pseudokinase domain (Homo sapiens)
- Construct: the N-terminal His-tagged TYK2 pseudokinase domain; His (N); purchased Pharmaron
- test: TYK2 JH2 domain SPA binding assay
- study-conditions: displacement of H3 probe (20 nM), 30 min room temperature; class symbols

Recorded results for 3 molecules are shown here.
INSERT INTO results (molecule, result) VALUES
  ('[2H]C([2H])([2H])O[C@H]1C[C@H](n2cccc(Nc3cc(NC)c4ncc(C(=O)N[C@@H]5C[C@H]6CCO[C@H]65)n4n3)c2=O)C1', '10 to 100 nM'),
  ('CNc1cc(Nc2cccc3c2OCCC3)nn2c(C(=O)NCc3nccn3C)cnc12', '10 to 100 nM'),
  ('CNc1cc(Nc2cccn(CC3CCCO3)c2=O)nn2c(C(=O)N[C@@H]3C[C@@H]3F)cnc12 (stereo partly shown)', '10 to 100 nM');

Please give the measured IC50 for this molecule: CNc1cc(Nc2cccc3c2OCCC3)nn2c(C(=O)N[C@@H]3C[C@@H]4CCO[C@@H]43)cnc12 (racemic) 10 to 100 nM

Item under review: `CNc1cc(Nc2cccn([C@H]3C[C@H](F)C3)c2=O)nn2c(C(=O)N[C@@H]3C[C@H]4CCO[C@H]43)cnc12` . Reported IC50? 10 to 100 nM

// returns reported IC50 for input [2H]C([2H])([2H])Nc1cc(Nc2cccn(C3CC4(CCOC4)C3)c2=O)nn2c(C(=O)N[C@@H]3C[C@@H]3F)cnc12 (single isomer, unassigned) [Compound 102a] 10 to 100 nM

Quick one: IC50 for [2H]c1onc2c1CCC2NC(=O)c1cnc2c(NC)cc(Nc3cccn(-c4ccccn4)c3=O)nn12 (stereo not shown) ? < 10 nM

Fill blank: measured IC50 of the molecule [2H]C([2H])([2H])Nc1cc(Nc2cccn(-c3ccccn3)c2=O)nc2c(C(=O)NC(C)c3ncco3)cnn12 (racemic) is ____. 10 to 100 nM

Need IC50, item CNc1cc(Nc2cccn(-c3ccn(C)n3)c2=O)nc2c(C(=O)N[C@@H]3C[C@H]4CCO[C@H]43)cnn12 (racemic) 100 to 1000 nM

What value of measured IC50 is listed for CNc1cc(Nc2cccc3c2OCCC3)nn2c(C(=O)N[C@@H]3C[C@H]4CCO[C@H]43)cnc12 (racemic) ? < 10 nM

Bench note: what IC50 did `[2H]C([2H])([2H])Nc1cc(Nc2cccn(-c3ccn(C)n3)c2=O)nn2c(C(=O)N[C@@H]3C[C@@H]3F)cnc12` show? 10 to 100 nM

Please report the recorded IC50 for `CNc1cc(Nc2cccn(-c3ccccc3F)c2=O)nn2c(C(=O)N[C@H]3C[C@@H]4CCO[C@@H]43)cnc12` . 100 to 1000 nM

Given the entry CNc1cc(Nc2cccc(C)n2)nc2c(C(=O)NC3CCn4ccnc43)cnn12 (racemic) , report its measured IC50. 10 to 100 nM

Any idea what its IC50 is? The molecule is CNc1cc(Nc2cccn(CC3CCCO3)c2=O)nn2c(C(=O)N[C@@H]3C[C@H]4CCO[C@H]43)cnc12 (single isomer, unassigned) [Compound 62a] 100 to 1000 nM
